# assayExplanation: Corrosion Test 1 (dynamic wheel test; 3 wt% brine/Mentor 28; CO2 + H2S)
# studyConditions: 50 ppm; 24 h, 70° C.; 30% solution
Counter-ions that a name gives are not always drawn.
Here, each record is paired with measured % Protection data.
reportedProperty: % Protection (%)

{"molecule": "CCc1ccccn1 [2-ethylpyridine.HCL, reference compound]", "reportedProperty": "% Protection", "readoutValue": 24}
{"molecule": "CCCCCCCCCCCCCCCCNCCc1ccncc1 [Example 27]", "reportedProperty": "% Protection", "readoutValue": 84}
{"molecule": "CCCCCCCCCCCCNCCc1ccncc1 [Example 25]", "reportedProperty": "% Protection", "readoutValue": 88}
{"molecule": "CCCCCCCCCCCCN(CCc1ccncc1)CCc1ccncc1 [Example 39]", "reportedProperty": "% Protection", "readoutValue": 89}
{"molecule": "CCCCCCCCCCNCCc1ccncc1 [Example 24]", "reportedProperty": "% Protection", "readoutValue": 88}
{"molecule": "CCCCCCCCCCCCNCCc1ccccn1 [Example 21, N-dodecyl-β-(2-pyridyl)-ethylamine]", "reportedProperty": "% Protection", "readoutValue": 86}
{"molecule": "NCCc1ccccn1 [2-aminoethyl pyridine, reference compound]", "reportedProperty": "% Protection", "readoutValue": 55}
{"molecule": "CCCCCCCCCCCCCCCCNCCc1ccccn1 [Example 6]", "reportedProperty": "% Protection", "readoutValue": 89}
{"molecule": "c1ccc(CN(CCc2ccccn2)CCc2ccccn2)cc1 [Example 20]", "reportedProperty": "% Protection", "readoutValue": 63}
{"molecule": "CCCCCCNCCc1ccncc1 [Example 22]", "reportedProperty": "% Protection", "readoutValue": 81}
